- tgt: T1, PDZD2_2, O15018
- T1 sequence (O15018 329-429, limits assumed, looked up): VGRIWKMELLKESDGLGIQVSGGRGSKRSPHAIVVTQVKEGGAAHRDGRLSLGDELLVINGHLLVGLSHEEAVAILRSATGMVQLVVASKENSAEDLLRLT
- protocol_summary: holdup assay
- Design: key: below the threshold = too weak to quantify, mostly under pKd 3.1 to 4
- run_conditions: plain residues with an end cap or a label only (N-terminal biotin on a linker: ado-ado)
endpoint: pKd

KKTPVSRSHL [SLC22A3, O75751] = below the threshold
EKPIDSETKM [SLC1A3, P43003] = below the threshold
NNMAFETTHF [SLC5A12, Q1EHB4] = below the threshold
